- systemName: T1, human DLL3 antigen (human, UniProt Q9NYJ7 27-492, limits assumed)
- T1 construct: also called immobilized human DLL3; recombinant human DLL3
- T1 sequence (looked up): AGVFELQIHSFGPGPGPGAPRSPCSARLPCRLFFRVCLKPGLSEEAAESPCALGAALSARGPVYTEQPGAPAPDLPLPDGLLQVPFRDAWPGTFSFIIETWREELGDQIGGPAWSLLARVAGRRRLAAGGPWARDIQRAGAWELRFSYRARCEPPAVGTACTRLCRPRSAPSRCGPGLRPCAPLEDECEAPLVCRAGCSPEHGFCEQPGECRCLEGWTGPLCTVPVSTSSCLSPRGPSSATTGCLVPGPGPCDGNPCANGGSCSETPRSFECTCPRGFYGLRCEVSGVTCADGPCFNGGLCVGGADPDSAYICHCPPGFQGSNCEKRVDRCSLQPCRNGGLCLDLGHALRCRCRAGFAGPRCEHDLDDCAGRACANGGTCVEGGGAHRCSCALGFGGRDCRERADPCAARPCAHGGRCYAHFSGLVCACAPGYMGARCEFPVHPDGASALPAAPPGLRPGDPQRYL
- assayDetails: ELISA or flow cytometry screen
resultType: binding result

[
  {
    "binder": "SC16.132 (antibody, V domains shown, murine mAb) VH: QVQLKESGPGLVAPSQSLSITCTVSGFSLTDYGVSWIRQPPGKGLEWLGVVWGGGSTYYNSALKSRLSITKDNSKSQVFLKMNSLQTDDTAMYYCAKQRGQYGAYWGQGTLVTVSA VL: DIQMTQSPASQSASLGESVTITCLASQTIGTWLAWYQQKPGKSPQLLIYAATSLADGVPSRFSGSGSGTKFSFKISSLQAEDFVSYYCQQLYSTPWTFGGGTKLEIK",
    "measuredValue": "binds"
  },
  {
    "binder": "SC16.111 (antibody, V domains shown, murine mAb) VH: EVQLQQSGPELEKPGASVKISCKASGYSFTGYNMNWVKQSNGKSLEWIGNIDPYYGGSSYKQKFEGKATLTVDKSSSTAYMQLKSLTSEDSAVYYCARGGSNFFDYWGQGTTLTVSS VL: DIQMTQSPASLAASVGETVTITCRASENIYYSLAWYQQKQGKSPQLLIYNANSLEDGVPSRFSGSGSGTQYSMKINSMQPEDTATYFCKQTYDVPLTFGAGTKLELK",
    "measuredValue": "binds"
  },
  {
    "binder": "SC16.107 (antibody, V domains shown, murine mAb) VH: EVQLQQSGPELVKPGASVKMSCKASGYTFTNYVMHWVKQKPGQGLEWIGYINPYNDGTKYNEKFKGKATLTSDKSSTTAYMALSSLTSEDSAVYYCAVAYYSNWGFAYWGQGTLVTVSA VL: DIVMTQSHKFMSTSVGDRVSITCKASQDVNTAVGWYQQKPGQSPKLLIYSASYRYTGVPDRFTGSGSGTDFTFTISSVQAEDLAVYYCQQHYSSPYTFGGGTKLEIKR",
    "measuredValue": "binds"
  }
]
